Test system: Yap1 mRNA
run-description: Antisense inhibition of human Yap1 in A-431 cells by cEt gapmers, single dose (Example 3, RTS36584)
Assay type: cell-based
assay-context: Table 29; Yap1 mRNA as percent of untreated control; 3-10-3 cEt gapmers targeting SEQ ID NO.: 1, and 2
Strand notation (5' to 3'): a small letter for the sugar, then the base; units joined by * are phosphorothioate-linked, units joined directly phosphodiester-linked; [ ] holds rarer units or linkages, { } end groups; capitals alone tell only the bases. k = constrained ethyl (cEt); [5mC] = 5-methylcytosine; d = 2'-deoxy (DNA)
Rule: Y for YAP1 (% UTC) not less than 70 % UTC, N for anything less.

As a guide, the following entries are already answered.
[
  {
    "substance": "1075823 (kT*kA*kT*dT*dA*dG*dA*dG*dG*dT*dT*d[5mC]*d[5mC]*kA*kG*kG; antisense) [compound 1075823]",
    "category": "N"
  },
  {
    "substance": "1074319 (antisense kG*k[5mC]*kT*dA*dA*d[5mC]*dT*d[5mC]*d[5mC]*dT*dG*dA*d[5mC]*kA*kT*kT) [compound 1074319]",
    "category": "N"
  },
  {
    "substance": "1075631 (antisense k[5mC]*k[5mC]*k[5mC]*dT*dA*dT*dA*dA*d[5mC]*d[5mC]*dA*dA*dA*kT*kG*k[5mC]) [compound 1075631]",
    "category": "Y"
  },
  {
    "substance": "1075503 (kG*k[5mC]*kT*dG*dA*dA*dA*dA*dA*dG*dG*dG*d[5mC]*kT*kT*kA; antisense) [compound 1075503]",
    "category": "N"
  }
]

IN: Evaluate 1076271 (k[5mC]*kG*kG*d[5mC]*dA*dA*d[5mC]*dA*dA*d[5mC]*dA*dA*dA*kA*kT*kG; antisense) [compound 1076271] : YAP1 (% UTC) at minimum 70 % UTC?
OUT: N

IN: Evaluate 1075919 (antisense kT*k[5mC]*kT*dT*dA*dA*dA*d[5mC]*dT*dA*dA*d[5mC]*dT*kG*kT*kT) [compound 1075919] : YAP1 (% UTC) at minimum 70 % UTC?
OUT: Y
